The entries below come with measured binary diffusion coefficient values attached.
test: xn = mol fraction of the nth substance listed; details: 313.15 K; 170 kPa; Liquid; Taylor dispersion method; x1 = 0
MEASURE: binary diffusion coefficient (m2/s)

MOLECULE: [CH]1C=CC=C1.[CH]1C=CC=C1.[Fe] [ferrocene] + CCCCCC
MEASURE: binary diffusion coefficient
READOUT VALUE: 3.64e-09

MOLECULE: [CH]1C=CC=C1.[CH]1C=CC=C1.[Fe] [ferrocene] + C1CCCCC1
MEASURE: binary diffusion coefficient
READOUT VALUE: 1.52e-09

MOLECULE: CCc1ccc[cH-]1.[Fe+2].c1cc[cH-]c1 [ethyl ferrocene] + C1CCCCC1
MEASURE: binary diffusion coefficient
READOUT VALUE: 1.38e-09

MOLECULE: C[c-]1cccc1.C[c-]1cccc1.[Fe+2] [1,1'-dimethylferrocene] + CCCCCC
MEASURE: binary diffusion coefficient
READOUT VALUE: 3.41e-09

###

assay: xn = mol fraction of the nth substance listed; details: 313.15 K; 19020 kPa; Liquid; Taylor dispersion method; x1 = 0
Parameter binary diffusion coefficient: see the listing below.
MEASURE: binary diffusion coefficient (m2/s)

COMPOUND: [CH]1C=CC=C1.[CH]1C=CC=C1.[Fe] [ferrocene] + CCCCCC
READING UNIT: m2/s
READOUT VALUE: 3.07e-09
--
COMPOUND: CCc1ccc[cH-]1.[Fe+2].c1cc[cH-]c1 [ethyl ferrocene] + C1CCCCC1
READING UNIT: m2/s
READOUT VALUE: 1.12e-09
--
COMPOUND: C[c-]1cccc1.C[c-]1cccc1.[Fe+2] [1,1'-dimethylferrocene] + CCCCCC
READING UNIT: m2/s
READOUT VALUE: 2.84e-09

###

assay: xn = mol fraction of the nth substance listed; conditions: 313.15 K; 19010 kPa; Liquid; Taylor dispersion method; x1 = 0
Values joined by “and” are separate entries in the source; they are usually repeats but may differ in a detail not shown here. Equal values may be shown once.

COMPOUND: [CH]1C=CC=C1.[CH]1C=CC=C1.[Fe] [ferrocene] + C1CCCCC1
binary diffusion coefficient: 1.21e-09 m2/s

COMPOUND: CCc1ccc[cH-]1.[Fe+2].c1cc[cH-]c1 [ethyl ferrocene] + C1CCCCC1
binary diffusion coefficient: 1.12e-09 m2/s and 1.15e-09 m2/s

COMPOUND: CCc1ccc[cH-]1.[Fe+2].c1cc[cH-]c1 [ethyl ferrocene] + CCCCCC
binary diffusion coefficient: 2.78e-09 m2/s

COMPOUND: C[c-]1cccc1.C[c-]1cccc1.[Fe+2] [1,1'-dimethylferrocene] + C1CCCCC1
binary diffusion coefficient: 1.09e-09 m2/s

These measurements were taken from the NIST ThermoML archive (doi:10.1016/j.fluid.2010.06.003).
